Let's look at some molecules and their measured Aq. Sol..
- protocol details: Aqueous solubility
- Type: physicochemical
- settings: pH 7.4

[
  {
    "molecule": "COc1cc(Cl)ccc1Nc1c(C#N)cnc2cc(OCCON3CCN(C)CC3)c(OC)cc12 [15a]",
    "Aq. Sol. (µM)": 0.8
  },
  {
    "molecule": "COc1cc2c(Nc3cccc(OC)c3Cl)c(C#N)cnc2cc1OCCON1CCN(C)CC1 [12a]",
    "Aq. Sol. (µM)": 123
  },
  {
    "molecule": "COc1cc2c(Nc3cccc(Cl)c3F)c(C#N)cnc2cc1OCCON1CCN(C)CC1 [11a]",
    "Aq. Sol. (µM)": 14
  },
  {
    "molecule": "COc1cc(Nc2c(C#N)cnc3cc(OCCON4CCN(C)CC4)c(OC)cc23)ccc1Cl [14a]",
    "Aq. Sol. (µM)": 7
  },
  {
    "molecule": "COc1cc(Nc2c(C#N)cnc3cc(OCCON4CCN(C)CC4)c(OC)cc23)c(F)cc1Cl",
    "Aq. Sol. (µM)": 43
  },
  {
    "molecule": "COc1cc2c(Nc3cccc(OC)c3F)c(C#N)cnc2cc1OCCON1CCN(C)CC1 [13a]",
    "Aq. Sol. (µM)": 29
  }
]

The measurements presented in this section are drawn from paper PMC11472320.
